Experiment: Test 5: Acute toxicity
Format: in vivo
Settings: mouse, in vivo, ip; read-out: LD50, intraperitoneal administration
ASSAY_METRIC: LD50

Challenge: Indicate the recorded LD50 value for this molecule: CCCCCCCCCCCCCCC#Cc1nc(N)c2ncn([C@@H]3O[C@H](CO)[C@@H](O)[C@H]3O)c2n1 [Compound 8]
Response given: > 800 mg/kg

* * *

Test system: heart rate
Experiment: Test 3: change in heart rate in NR
Assay type: in vivo, male Wistar rats (normotensive rats
Conditions: 100 μg/kg, procedure of Test 2, 10- to 12-week-old male Wistar rats
The label T is reserved for Change in heart rate (ΔHR) strictly under -40; F covers values equal to or above it.

COMPOUND_STRUCTURE_STRING: CCCCC#Cc1nc(N)c2ncn([C@@H]3O[C@H](CO)[C@@H](O)[C@H]3O)c2n1
CLASSIFICATION: F

Challenge: Identify whether the compound CCCCCC#Cc1nc(N)c2ncn([C@@H]3O[C@H](CO)[C@@H](O)[C@H]3O)c2n1 records Change in heart rate (ΔHR) below -40.
Response given: T

Challenge: Identify whether the compound CCCCCCCCCCCCC#Cc1nc(N)c2ncn([C@@H]3O[C@H](CO)[C@@H](O)[C@H]3O)c2n1 records Change in heart rate (ΔHR) below -40.
Response given: F

Challenge: Identify whether the compound CCCCCCC#Cc1nc(N)c2ncn([C@@H]3O[C@H](CO)[C@@H](O)[C@H]3O)c2n1 records Change in heart rate (ΔHR) below -40.
Response given: T

Challenge: Identify whether the compound CCCCCCCCCCCCCCCC#Cc1nc(N)c2ncn([C@@H]3O[C@H](CO)[C@@H](O)[C@H]3O)c2n1 records Change in heart rate (ΔHR) below -40.
Response given: F

Challenge: Identify whether the compound CCCCCCCCCCCCCCC#Cc1nc(N)c2ncn([C@@H]3O[C@H](CO)[C@@H](O)[C@H]3O)c2n1 records Change in heart rate (ΔHR) below -40.
Response given: F

* * *

Tested on: heart rate
Assay: Test 3: change in heart rate in NR
Assay type: in vivo, male Wistar rats (normotensive rats
Settings: 100 μg/kg, procedure of Test 2, 10- to 12-week-old male Wistar rats
ASSAY_METRIC: Change in heart rate (ΔHR)
Lab note: record the figure alone, no unit after it.

Some solved cases for reference:
COMPOUND_STRUCTURE_STRING: CCCCCCCCCCC#Cc1nc(N)c2ncn([C@@H]3O[C@H](CO)[C@@H](O)[C@H]3O)c2n1
NUMBER: -12

COMPOUND_STRUCTURE_STRING: CCCCCCCCC#Cc1nc(N)c2ncn([C@@H]3O[C@H](CO)[C@@H](O)[C@H]3O)c2n1
NUMBER: -18

Challenge: Indicate the recorded Change in heart rate (ΔHR) value for this molecule: CCCCCCCCCCCCCCCCC#Cc1nc(N)c2ncn([C@@H]3O[C@H](CO)[C@@H](O)[C@H]3O)c2n1
Response given: -5

Challenge: Indicate the recorded Change in heart rate (ΔHR) value for this molecule: CCCC#Cc1nc(N)c2ncn([C@@H]3O[C@H](CO)[C@@H](O)[C@H]3O)c2n1
Response given: -48

* * *

Assay: Test 5: Acute toxicity
Assay type: in vivo
Details: mouse, in vivo, po
ASSAY_METRIC: selectivity ratio

Challenge: Indicate the recorded selectivity ratio value for this compound: CCCCCCCCCCCCCCC#Cc1nc(N)c2ncn([C@@H]3O[C@H](CO)[C@@H](O)[C@H]3O)c2n1 [Compound 8]
Response given: ≥ 400

* * *

Experiment: Test 5: Acute toxicity
Format: in vivo
Conditions: mouse, in vivo, po; read-out: LD50, oral administration
ASSAY_METRIC: LD50

Challenge: Indicate the recorded LD50 value for this compound: CCCCCCCCCCCCCCC#Cc1nc(N)c2ncn([C@@H]3O[C@H](CO)[C@@H](O)[C@H]3O)c2n1
Response given: > 1300 mg/kg

Sourced from patent US4956345A
